# Test system: 439559-082-T-J2-PDC spheroids viability
# test.description: Anticancer human tumor 439559-082-T-J2-PDC patient-derived colon adenocarcinoma cell line growth inhibition [GQUAD]
# settings: second compound 3.16 µM; first compound 0.1 µM; stronger effect = lower value
Binary label based on viability, T/C with cut-off 70%: below gives Satisfied, not below gives Not satisfied.

[Q] Threshold test, viability, T/C < 70%: C#Cc1c(F)ccc2cc(O)cc(-c3ncc4c(N5CC6CCC(C5)N6)nc(OCC56CCCN5CC(F)C6)nc4c3F)c12 (stereo not given) + Cc1cnc(CNC(=O)c2c(=O)c3ccc(N4CCCN(C)CC4)nc3n3c2sc2ccccc23)cn1
[A] Not satisfied

[Q] Please indicate whether the reported viability, T/C of COc1ccc([C@@H](O)c2cc(-c3ncnc4cc(N5CCOCC5)ccc34)c(F)cc2Cl)nn1 + CN(C)c1ccc(Nc2c3ccc(NC(=O)CCN4CCCC4)cc3nc3cc(NC(=O)CCN4CCCC4)ccc23)cc1 is strictly below 70%.
[A] Not satisfied

[Q] Find out if reported viability, T/C for CC(=O)O[C@H]1C(=O)[C@@]2(C)[C@H]([C@H](OC(=O)c3ccccc3)[C@]3(O)C[C@H](OC(=O)[C@H](O)[C@@H](NC(=O)c4ccccc4)c4ccccc4)C(C)=C1C3(C)C)[C@]1(OC(C)=O)CO[C@@H]1C[C@@H]2O + Cc1[nH]c2ccc(F)cc2c1-c1nc2c3cccnc3c3ncccc3c2[nH]1 is less than 70%
[A] Not satisfied

Could you now consider this next compound?
[Q] Field: below-cutoff. Rule: recorded viability, T/C strictly less than 70%. Subject: CC1COCCN1c1cc(C2(O)CC3CCC(C2)O3)c2cnn(-c3ccn[nH]3)c2n1 (stereo not given) + Cc1cnc(CNC(=O)c2c(=O)c3ccc(N4CCCN(C)CC4)nc3n3c2sc2ccccc23)cn1
[A] Satisfied

* * *

# Test system: 439559-082-T-J2-PDC spheroids viability
# test.description: Anticancer human tumor 439559-082-T-J2-PDC cell line growth inhibition [GQUAD];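 also: spheroids exposed to the agents for 7 days before readout; percent of luminescence signal in DMSO vehicle wells taken as 100% viability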
# settings: second compound 0.316 µM; first compound 10 µM; stronger effect = lower value
# Text: DNA G-quadruplex Stabilizer Agents in Combinations in Complex Spheroids A high-throughput screen of multi-cell type tumor spheroids was designed to identify active combinations of DNA G-quadruplex stabilizer agents and targeted small molecules. […] Compounds. […] If the clinical Cmax for an agent had not been determined, the highest concentration tested was 10 microM. […]
Collected viability, T/C values appear next to each entry.
Answer with a number only, understood to be in %.

[Q] I have this compound here, CCCS(=O)(=O)Nc1ccc(F)c(C(=O)c2c[nH]c3ncc(-c4ccc(Cl)cc4)cc23)c1F + Cc1[nH]c2ccc(F)cc2c1-c1nc2c3cccnc3c3ncccc3c2[nH]1 , and I need its recorded viability, T/C.
[A] 23

[Q] GET /values?readout=viability, T/C&item= C=CC(=O)N1CCN(c2nc(=O)n(-c3c(C)ccnc3C(C)C)c3nc(-c4c(O)cccc4F)c(F)cc23)C(C)C1 (stereo not given) + Cc1[nH]c2ccc(F)cc2c1-c1nc2c3cccnc3c3ncccc3c2[nH]1
[A] 97.8

[Q] Sample CC(C)(O)C1CCC(Nc2ccc3ncc(-c4cccc(C(F)(F)F)c4)n3n2)CC1 (stereo not given) + Cc1[nH]c2ccc(F)cc2c1-c1nc2c3cccnc3c3ncccc3c2[nH]1 — what was its viability, T/C?
[A] 50.1

[Q] Name the recorded viability, T/C for CC(C)(O)C1CCC(Nc2ccc3ncc(-c4cccc(C(F)(F)F)c4)n3n2)CC1 (stereo not given) + CN(C)c1ccc(Nc2c3ccc(NC(=O)CCN4CCCC4)cc3nc3cc(NC(=O)CCN4CCCC4)ccc23)cc1 .
[A] 10.6

[Q] Please give the measured viability, T/C for this compound: Cc1cccc(N(C)C(=O)C2C(O)CCN2c2nc(C)cc(C(F)(F)F)c2C#N)c1 (stereo not given) + Cc1[nH]c2ccc(F)cc2c1-c1nc2c3cccnc3c3ncccc3c2[nH]1
[A] 83.3

* * *

Overview of recorded viability, T/C for various molecules
# Tested on: 439559-082-T-J2-PDC spheroids viability
# test.description: Anticancer human tumor 439559-082-T-J2-PDC cell line growth inhibition [GQUAD];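 also: spheroids exposed to the agents for 7 days before readout; percent of luminescence signal in DMSO vehicle wells taken as 100% viability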
# settings: second compound 1 µM; first compound 0.316 µM; stronger effect = lower value
// return numeric value only (unit: %, not printed)

See these solved cases before continuing.
[Q] Can you look up the measured viability, T/C of Cc1cccc(N(C)C(=O)C2C(O)CCN2c2nc(C)cc(C(F)(F)F)c2C#N)c1 (stereo unspecified) + Cc1[nH]c2ccc(F)cc2c1-c1nc2c3cccnc3c3ncccc3c2[nH]1 for me?
[A] 87.4

[Q] Query (molecule): O=C(NO)c1cnc(N2CCN(S(=O)(=O)c3ccc4ccccc4c3)CC2)nc1 + Cc1cnc(CNC(=O)c2c(=O)c3ccc(N4CCCN(C)CC4)nc3n3c2sc2ccccc23)cn1 ; field requested: viability, T/C
[A] 53.9

[Q] Report viability, T/C for CC1COCCN1c1cc(-c2ccnn2C)c2ccnc(-c3ccn[nH]3)c2n1 (stereo unspecified) + Cc1cnc(CNC(=O)c2c(=O)c3ccc(N4CCCN(C)CC4)nc3n3c2sc2ccccc23)cn1 please.
[A] 33.2

[Q] Data request, read-out viability, T/C, for CC(C)(O)C1CCC(Nc2ccc3ncc(-c4cccc(C(F)(F)F)c4)n3n2)CC1 (stereo unspecified) + Cc1cnc(CNC(=O)c2c(=O)c3ccc(N4CCCN(C)CC4)nc3n3c2sc2ccccc23)cn1
[A] 74.5

---
[Q] Form field: reported viability, T/C of CC(C)n1c(=O)n(C)c2cnc3cc(F)c(-c4ccc(OCCCN5CCCCC5)nc4)cc3c21 + Cc1cnc(CNC(=O)c2c(=O)c3ccc(N4CCCN(C)CC4)nc3n3c2sc2ccccc23)cn1
[A] 66.7

[Q] Item CCc1c2c(nc3ccc(O)cc13)-c1cc3c(c(=O)n1C2)COC(=O)[C@]3(O)CC + Cc1cnc(CNC(=O)c2c(=O)c3ccc(N4CCCN(C)CC4)nc3n3c2sc2ccccc23)cn1 has what recorded viability, T/C?
[A] 33.8

[Q] Fill in the blank: the reported viability, T/C of CC[C@@]1(O)C(=O)OCc2c1cc1n(c2=O)Cc2cc3c(CN(C)C)c(O)ccc3nc2-1 + Cc1[nH]c2ccc(F)cc2c1-c1nc2c3cccnc3c3ncccc3c2[nH]1 is ____.
[A] 83.6

[Q] Which value of viability, T/C has been reported for C=CCn1c(=O)c2cnc(Nc3ccc(N4CCN(C)CC4)cc3)nc2n1-c1cccc(C(C)(C)O)n1 + Cc1cnc(CNC(=O)c2c(=O)c3ccc(N4CCCN(C)CC4)nc3n3c2sc2ccccc23)cn1 in the records?
[A] 72.1

[Q] Consider the molecule C#Cc1c(F)ccc2cc(O)cc(-c3ncc4c(N5CC6CCC(C5)N6)nc(OCC56CCCN5CC(F)C6)nc4c3F)c12 (stereo unspecified) + Cc1[nH]c2ccc(F)cc2c1-c1nc2c3cccnc3c3ncccc3c2[nH]1 and give its measured viability, T/C.
[A] 101

[Q] I would be grateful if you could share the reported viability, T/C for O=c1[nH]cc(F)c(=O)[nH]1 + CN(C)c1ccc(Nc2c3ccc(NC(=O)CCN4CCCC4)cc3nc3cc(NC(=O)CCN4CCCC4)ccc23)cc1 .
[A] 89

[Q] Give the measured viability, T/C of C#Cc1c(F)ccc2cc(O)cc(-c3ncc4c(N5CC6CCC(C5)N6)nc(OCC56CCCN5CC(F)C6)nc4c3F)c12 (stereo unspecified) + Cc1cnc(CNC(=O)c2c(=O)c3ccc(N4CCCN(C)CC4)nc3n3c2sc2ccccc23)cn1 .
[A] 65.3

* * *

# Test system: 439559-082-T-J2-PDC spheroids viability
# test.description: Anticancer human tumor 439559-082-T-J2-PDC cell line growth inhibition [GQUAD];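 also: spheroids exposed to the agents for 7 days before readout; percent of luminescence signal in DMSO vehicle wells taken as 100% viability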
# settings: second compound 3.16 µM; first compound 0.1 µM; stronger effect = lower value
The threshold is 80%. Values of viability, T/C beneath it are tagged true (1); values meeting or exceeding it are tagged false (0).

Answered examples (10):
[Q] Below 80% on viability, T/C? Entry C=CC(=O)N1CCN(c2nc(=O)n(-c3c(C)ccnc3C(C)C)c3nc(-c4c(O)cccc4F)c(F)cc23)C(C)C1 (stereo unspecified) + Cc1cnc(CNC(=O)c2c(=O)c3ccc(N4CCCN(C)CC4)nc3n3c2sc2ccccc23)cn1
[A] true (1)

[Q] Quick check: does C#Cc1c(F)ccc2cc(O)cc(-c3ncc4c(N5CC6CCC(C5)N6)nc(OCC56CCCN5CC(F)C6)nc4c3F)c12 (stereo unspecified) + CN(C)c1ccc(Nc2c3ccc(NC(=O)CCN4CCCC4)cc3nc3cc(NC(=O)CCN4CCCC4)ccc23)cc1 have viability, T/C under 80%?
[A] true (1)

[Q] Given the entry O=c1[nH]cc(F)c(=O)[nH]1 + CN(C)c1ccc(Nc2c3ccc(NC(=O)CCN4CCCC4)cc3nc3cc(NC(=O)CCN4CCCC4)ccc23)cc1 , would its reported viability, T/C be below 80%?
[A] false (0)

[Q] Lab log: compare recorded viability, T/C with 80%; is it strictly lower for CC1COCCN1c1cc(-c2ccnn2C)c2ccnc(-c3ccn[nH]3)c2n1 (stereo unspecified) + Cc1cnc(CNC(=O)c2c(=O)c3ccc(N4CCCN(C)CC4)nc3n3c2sc2ccccc23)cn1 ?
[A] true (1)

[Q] Problem: For the compound CC(C)(O)C1CCC(Nc2ccc3ncc(-c4cccc(C(F)(F)F)c4)n3n2)CC1 (stereo unspecified) + Cc1cnc(CNC(=O)c2c(=O)c3ccc(N4CCCN(C)CC4)nc3n3c2sc2ccccc23)cn1 , is viability, T/C under 80%?
[A] true (1)

[Q] Is 80% strictly greater than the compound's reported viability, T/C? compound: COc1cccc2c1C(=O)c1c(O)c3c(c(O)c1C2=O)CC(O)(C(=O)CO)CC3OC1CC(N)C(O)C(C)O1 (stereo unspecified) + Cc1cnc(CNC(=O)c2c(=O)c3ccc(N4CCCN(C)CC4)nc3n3c2sc2ccccc23)cn1
[A] true (1)

[Q] Consider the compound Nc1ccn(C2OC(CO)C(O)C2(F)F)c(=O)n1 (stereo unspecified) + Cc1[nH]c2ccc(F)cc2c1-c1nc2c3cccnc3c3ncccc3c2[nH]1 . Is its viability, T/C strictly less than 80%?
[A] true (1)

[Q] Identify whether the compound CC1COCCN1c1cc(C2(O)CC3CCC(C2)O3)c2cnn(-c3ccn[nH]3)c2n1 (stereo unspecified) + CN(C)c1ccc(Nc2c3ccc(NC(=O)CCN4CCCC4)cc3nc3cc(NC(=O)CCN4CCCC4)ccc23)cc1 records viability, T/C below 80%.
[A] false (0)

[Q] Here's an entry: COc1ncnc(C2CC2)c1-c1ncc2cnn(Cc3ccc(-c4nc(C(F)(F)F)cn4C(C)C)cc3)c2n1 + Cc1cnc(CNC(=O)c2c(=O)c3ccc(N4CCCN(C)CC4)nc3n3c2sc2ccccc23)cn1 . Is its viability, T/C below 80%?
[A] true (1)

[Q] Consider the compound C=CC(=O)N1CCN(c2nc(=O)n(-c3c(C)ccnc3C(C)C)c3nc(-c4c(O)cccc4F)c(F)cc23)C(C)C1 (stereo unspecified) + CN(C)c1ccc(Nc2c3ccc(NC(=O)CCN4CCCC4)cc3nc3cc(NC(=O)CCN4CCCC4)ccc23)cc1 . Is its viability, T/C strictly less than 80%?
[A] false (0)

---
[Q] Is 80% strictly greater than the compound's reported viability, T/C? compound: C=CC(=O)N1CCN(c2nc(=O)n(-c3c(C)ccnc3C(C)C)c3nc(-c4c(O)cccc4F)c(F)cc23)C(C)C1 (stereo unspecified) + Cc1[nH]c2ccc(F)cc2c1-c1nc2c3cccnc3c3ncccc3c2[nH]1
[A] false (0)

[Q] Is the reported viability, T/C for O=C(c1cc(Cc2n[nH]c(=O)c3ccccc23)ccc1F)N1CCN(C(=O)C2CC2)CC1 + CN(C)c1ccc(Nc2c3ccc(NC(=O)CCN4CCCC4)cc3nc3cc(NC(=O)CCN4CCCC4)ccc23)cc1 strictly below 80%?
[A] false (0)

[Q] Report whether reported viability, T/C is lower than 80% (strictly) for COc1cccc2c1C(=O)c1c(O)c3c(c(O)c1C2=O)CC(O)(C(=O)CO)CC3OC1CC(N)C(O)C(C)O1 (stereo unspecified) + CN(C)c1ccc(Nc2c3ccc(NC(=O)CCN4CCCC4)cc3nc3cc(NC(=O)CCN4CCCC4)ccc23)cc1
[A] false (0)

[Q] Is 80% strictly greater than the compound's reported viability, T/C? compound: COc1cc(C2c3cc4c(cc3C(OC3OC5COC(C)OC5C(O)C3O)C3COC(=O)C23)OCO4)cc(OC)c1O (stereo unspecified) + Cc1[nH]c2ccc(F)cc2c1-c1nc2c3cccnc3c3ncccc3c2[nH]1
[A] false (0)

[Q] For this compound, is viability, T/C lower than 80%? COc1ccc([C@@H](O)c2cc(-c3ncnc4cc(N5CCOCC5)ccc34)c(F)cc2Cl)nn1 + Cc1[nH]c2ccc(F)cc2c1-c1nc2c3cccnc3c3ncccc3c2[nH]1
[A] false (0)

[Q] Below 80% on viability, T/C? Entry CC1COCCN1c1cc(C2(S(C)(=N)=O)CC2)nc(-c2ccnc3[nH]ccc23)n1 (stereo unspecified) + Cc1cnc(CNC(=O)c2c(=O)c3ccc(N4CCCN(C)CC4)nc3n3c2sc2ccccc23)cn1
[A] true (1)

[Q] Is viability, T/C strictly under 80% for the entry CC(C)(O)C1CCC(Nc2ccc3ncc(-c4cccc(C(F)(F)F)c4)n3n2)CC1 (stereo unspecified) + Cc1[nH]c2ccc(F)cc2c1-c1nc2c3cccnc3c3ncccc3c2[nH]1 ?
[A] true (1)

[Q] Hello, I'm reviewing records and need to know if viability, T/C of CC(C)n1c(=O)n(C)c2cnc3cc(F)c(-c4ccc(OCCCN5CCCCC5)nc4)cc3c21 + Cc1[nH]c2ccc(F)cc2c1-c1nc2c3cccnc3c3ncccc3c2[nH]1 is below 80%. Could you check?
[A] false (0)
